pIC50 reference
# System: Jurkat (Human Acute T-cell leukemia)
# Test Description: cells
# Type: cell-based
# Assay Context: read-out: IC50 Jurkat
pIC50: −log10 of the molar value.

- Molecule: "Cn1nnc2c(C(N)=O)ncn2c1=O [TMZ, Temozolomide, reference compound]"
  pIC50: 5.68
- Molecule: "c1ccc(N=NNc2ccccc2)cc1 [G, 1,3-diphenyltriazene]"
  pIC50: 5.26
- Molecule: "O=[N+]([O-])c1ccc(N=NNCCO)cc1 [E]"
  pIC50: 5.35
- Molecule: "COc1ccccc1N=NNc1ccccc1OC [F, 1,3-Bis(2-methoxyphenyl)triazene]"
  pIC50: 5.79
- Molecule: "O=[N+]([O-])c1ccc(N=NNc2cccc(O)c2)cc1 [A]"
  pIC50: 5.92
- Molecule: "CCOc1ccccc1N=NNc1ccccc1OCC [C, 1,3-bis(2-ethoxyphenyl)triazene]"
  pIC50: 5.77
- Molecule: "O=[N+]([O-])c1ccc(N=NNc2ccccc2O)cc1 [B]"
  pIC50: 5.98
- Molecule: "N#Cc1ccccc1N=NNc1ccccc1C#N [D, 1,3-bis (2-cyanophenyl) triazene]"
  pIC50: 5.84

// provenance: paper PMC3920694
